# System: ATPase activity endogenous to L929 cell lysate
# procedure details: Detergent inhibition of ATPase endogenous to L929 cell lysate (ATP remaining by luciferase luminescence, 22° C.)
# Assay type: biochemical
# condition notes: 0.1% detergent, 222 min
The label depends only on Percent ATP Remaining: Criterion met if it is at least 20%, Criterion not met if it is smaller.

{"molecule": "C[C@H](CCC(=O)NCCC[N+](C)(C)CC(O)CS(=O)(=O)[O-])[C@H]1CC[C@H]2[C@@H]3[C@H](O)C[C@@H]4C[C@H](O)CC[C@]4(C)[C@H]3C[C@H](O)[C@]12C (stereo partly drawn)", "class assignment": "Criterion not met"}
{"molecule": "CCCCCCCCCCCC[N+](C)(C)CCCS(=O)(=O)[O-]", "class assignment": "Criterion not met"}
{"molecule": "CCCCCCCCCCCC[N+](C)(C)C.[Br-] [DTAB, dodecyltrimethylammonium bromide]", "class assignment": "Criterion met"}
{"molecule": "CCCCCCCCCCCC[N+](C)(C)Cc1ccccc1.[Br-] [BDDABr, Benzyldimethyldodecylammonium bromide]", "class assignment": "Criterion met"}
{"molecule": "C[C@H](CCC(=O)[O-])[C@H]1CC[C@H]2[C@@H]3CC[C@@H]4C[C@H](O)CC[C@]4(C)[C@H]3C[C@H](O)[C@]12C.[Na+] [Deoxycholate, sodium deoxycholate]", "class assignment": "Criterion not met"}
{"molecule": "CCCCCCCCCCCCCCCC[N+](C)(C)C.[Br-] [CTAB, Cetyltrimethylammonium bromide]", "class assignment": "Criterion met"}
